Answer each item with its documented activation at 10 µM.
target: IC-GPCR2 (Homo sapiens, UniProt Q8TDV5, S309L); construct: expressed in transfected cells; assay: Stimulation of cAMP in CHO cells stably expressing IC-GPCR2 (HTRF cAMP assay); assay type: cell-based; settings: 0.5 h, 30 minutes, IC-GPCR2 stably expressing CHO cells, read-out: Activity at 10 uM (% change in FRET signal from DMSO control)
Sequence (Q8TDV5 whole entry S309L): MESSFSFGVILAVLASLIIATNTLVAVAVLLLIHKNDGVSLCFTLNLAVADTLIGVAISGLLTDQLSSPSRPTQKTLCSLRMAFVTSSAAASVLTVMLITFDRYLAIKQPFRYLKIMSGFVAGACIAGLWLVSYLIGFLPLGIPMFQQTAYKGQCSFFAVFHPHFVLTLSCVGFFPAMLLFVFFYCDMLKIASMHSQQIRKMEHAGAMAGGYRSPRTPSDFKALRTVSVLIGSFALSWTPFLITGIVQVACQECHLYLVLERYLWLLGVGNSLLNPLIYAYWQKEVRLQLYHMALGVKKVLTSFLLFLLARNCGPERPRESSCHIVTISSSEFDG
Answers are plain numbers, in %.

[
  {
    "compound": "CCc1cnc(N2CCC(c3nc(COc4ccc(-n5cnnn5)cc4)cs3)C2)nc1 (stereo not shown) [Example 103]",
    "number": 79
  },
  {
    "compound": "CCc1cnc(N2CCC(F)(c3nc(COc4ccc(S(C)(=O)=O)cc4)cs3)CC2)nc1 [Example 88]",
    "number": 49
  },
  {
    "compound": "CC(=O)c1ccc(OCc2csc(C3CCN(C(=O)OC(C)(C)C)CC3)n2)c(F)c1 [Example 125]",
    "number": 78
  },
  {
    "compound": "CCc1cnc(N2CCCC(c3nc(COc4ccc(-n5cnnn5)cc4)cs3)C2)nc1 (stereo not shown) [Example 105]",
    "number": 52
  },
  {
    "compound": "CC(C)(C)OC(=O)N1CCC(c2nc(CNc3ccc(S(C)(=O)=O)cc3)cs2)CC1 [Example 138]",
    "number": 64
  },
  {
    "compound": "FC(F)(F)c1cnc(N2CCC(c3nc(COc4ccc(-n5cnnn5)cc4)cs3)CC2)c(Cl)c1 [Example 193]",
    "number": 35
  },
  {
    "compound": "CC(C)(C)OC(=O)N1CCC(c2nc(COCc3ccc(S(C)(=O)=O)cc3)cs2)CC1 [Example 106]",
    "number": 71
  },
  {
    "compound": "Clc1cnc(N2CCC(c3nc(COc4ccc(-n5cnnn5)cc4)cs3)CC2)c(Cl)c1 [Example 196]",
    "number": 19
  }
]

Can you give me activation at 10 µM for all of these, one by one?
1. CC(C)(C)OC(=O)N1CCC(c2nc(CNCc3ccc(S(C)(=O)=O)cc3)cs2)CC1 [Example 142]
2. FC(F)(F)c1cnc(N2CCC(c3nc(COc4ccc(-n5cnnn5)cc4Cl)cs3)CC2)nc1 [Example 166]
3. CS(=O)(=O)c1ccc(OCc2csc(C3CCN(C(=O)c4cccnc4)CC3)n2)cc1 [Example 40]
4. C[C@H](NCc1csc(C2CCN(C(=O)OC(C)(C)C)CC2)n1)c1ccc(S(C)(=O)=O)cc1 [Example 143]

## Result
78
74
21
63

Can you give me activation at 10 µM for all of these, one by one?
1. CCc1cnc(N2CCC(c3nc(COc4ccc(S(C)(=O)=O)cc4)cs3)CC2)nc1 [Example 51]
2. C[C@H]1CN(c2ncc(Cl)cn2)CC[C@H]1c1nc(COc2ccc(-n3cnnn3)cc2F)cs1 (stereo in doubt) [Example 201]
3. CC(C)(C)COC(=O)N1CCC(c2nc(COc3ccc(-n4cnnn4)cc3)cs2)CC1 [Example 34]
4. O=[N+]([O-])c1cnc(N2CCC(c3nc(COc4ccc(-n5cnnn5)cc4)cs3)CC2)nc1 [Example 192]

## Result
1: 57; 2: 87; 3: 70; 4: 74
